assay.info: Antiviral activity was evaluated by RT (reverse transcriptase) activity in cells acutely infected with HIV-1
assay.endpoint: IC50 (µM)

// solved cases for IC50 follow
CCCCCCC(=O)NC1=NN(C)c2ncnc3c2c1cn3C1O[C@H](CO)[C@@H](O)[C@H]1O (some centres undefined)	0.035
CC(=O)NC1=NN(C)c2ncnc3c2c1cn3C1O[C@H](CO)[C@@H](O)[C@H]1O (some centres undefined)	6.8
CCC(=O)NC1=NN(C)c2ncnc3c2c1cn3C1O[C@H](CO)[C@@H](O)[C@H]1O (some centres undefined)	8.4

[P] CCCCCC(=O)NC1=NN(C)c2ncnc3c2c1cn3C1O[C@H](CO)[C@@H](O)[C@H]1O (some centres undefined)
[Q] CCCC(=O)NC1=NN(C)c2ncnc3c2c1cn3C1O[C@H](CO)[C@@H](O)[C@H]1O (some centres undefined)
[R] CC(C)C(=O)NC1=NN(C)c2ncnc3c2c1cn3C1O[C@H](CO)[C@@H](O)[C@H]1O (some centres undefined)
[S] CCCCC(=O)NC1=NN(C)c2ncnc3c2c1cn3C1O[C@H](CO)[C@@H](O)[C@H]1O (some centres undefined)
**Q:** Let's sort these by IC50, smallest first. Go ahead? Rank them, then answer with their labels in that order.
**A:** P, Q, S, R
(P: 0.35 µM, Q: 0.5 µM, S: 0.8 µM, R: 8 µM)
